The origin of these recorded values is patent US20220000841A1.

Kindly state melting point for each of the entries shown.

O=C(O)c1ccccc1CCn1c(-c2ccco2)n[nH]c1=S: 210 to 211 °C
Cc1ccccc1-c1n[nH]c(=S)n1CCc1ccccc1C(=O)O: 180 to 181 °C
COc1ccc(O)c(-c2n[nH]c(=S)n2CCc2ccccc2C(=O)O)c1: 88 to 89 °C
S=c1[nH]nc(-c2ccccc2)n1CCSCc1ccccc1: 108 to 109 °C
O=C(O)CCCCCn1c(-c2ccccc2)n[nH]c1=S: 136 to 137 °C

Items follow; give melting point for each.
1. O=C(O)c1ccccc1CNn1c(-c2ccc3ccccc3c2)n[nH]c1=S
2. O=C(O)CCCn1c(-c2ccc3ccccc3c2)n[nH]c1=S
3. CCCCCCn1c(-c2ccccc2)n[nH]c1=S

Result:
["213 to 214 °C", "220 to 221 °C", "98 to 99 °C"]

Items follow; give melting point for each.
1. CCCCn1c(-c2ccccc2)n[nH]c1=S
2. COc1cccc(-c2n[nH]c(=S)n2CCc2ccccc2C(=O)O)c1
3. COc1ccc(O)c(-c2n[nH]c(=S)n2CCCC(=O)O)c1
4. COc1cccc(-c2n[nH]c(=S)n2CCCC(=O)O)c1

Result:
1: 128 to 129 °C; 2: 197 to 198 °C; 3: 155 to 156 °C; 4: 159 to 160 °C

----------
Kindly state % inhibition VIM-2 for each of the entries shown.
molecular target: VIM-2 (Escherichia coli, UniProt Q5U7L7); assay: Enzymatic assay for determination of inhibition constants, reporter substrate method, purified VIM-2; format: biochemical; settings: at 200 μM (maximal tested concentration)
Numbers only, in % at 200 μM.

O=C(O)C1CCC(Cn2c(-c3ccccc3)n[nH]c2=S)CC1 (stereo not drawn) [Compound 34]: 75
COc1cccc(-c2n[nH]c(=S)n2CCCC(=O)O)c1 [Compound 24]: 70

Please find the next compound below.
Task: Look up % inhibition VIM-2: O=C(O)CCCn1c(-c2ccc3ccccc3n2)n[nH]c1=S [Compound 50]
Result: 80

----------
Kindly state % inhibition VIM-2 for each of the entries shown.
target: VIM-2 (Escherichia coli); assay: Enzymatic assay for determination of inhibition constants, reporter substrate method, purified VIM-2; assay type: biochemical; settings: at 100 μM (maximal tested concentration)
One number for each entry, in % at 100 μM.

O=C(O)c1cccc(Cn2c(-c3ccccc3)n[nH]c2=S)c1: 84

Items follow; give % inhibition VIM-2 for each.
1. Nc1ccc(CCn2c(-c3ccccc3)n[nH]c2=S)c(C(=O)O)c1
2. O=C(O)c1cc(O)ccc1CCn1c(-c2ccccc2)n[nH]c1=S
3. O=C(O)c1ccccc1CCn1c(-c2ccsc2)n[nH]c1=S
4. O=C(O)C(CCCn1c(-c2ccccc2)n[nH]c1=S)NCc1cccc(O)c1O (stereo not drawn)
5. O=C(O)c1ccccc1CNn1c(-c2cccc(-c3ccccc3)c2)n[nH]c1=S

Result:
[75, 90, 85, 55, 75]

Items follow; give % inhibition VIM-2 for each.
1. O=C(O)CCCCCCCn1c(-c2ccccc2)n[nH]c1=S
2. S=c1[nH]nc(-c2ccccc2)n1CCCSc1ccccc1
3. O=C(O)C1CCCC(n2c(-c3ccccc3)n[nH]c2=S)C1 (stereo not drawn)

Result:
1. 90
2. 72
3. 60

----------
molecular target: VIM-2 (Escherichia coli, UniProt Q5U7L7); experiment: Enzymatic assay for determination of inhibition constants, reporter substrate method, purified VIM-2; format: biochemical; settings: isolated MBL, competitive inhibition model; read-out: Ki VIM-2;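 also: purified VIM-2 hydrolysing a reporter substrate (imipenem, meropenem, cefotaxime or nitrocefin), reaction rate read as absorbance change, HEPES 50 mM at pH 7.5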
parameter: Ki

Known Ki results, listed for orientation:
CC(C)(C)OC(=O)NC(CCCn1c(-c2ccccc2)n[nH]c1=S)C(=O)O (stereo not drawn): 1000 to 10000 nM
O=[N+]([O-])c1ccc(O)c(CSCCn2c(-c3ccccc3)n[nH]c2=S)c1: < 1000 nM
O=C(O)CC(Cn1c(-c2ccccc2)n[nH]c1=S)c1ccccc1 (stereo not drawn): > 100000 nM
O=C(O)c1ccccc1CCn1c(-c2cccc(OCCN3CCOCC3)c2)n[nH]c1=S: < 1000 nM
O=C(O)C(CSCCn1c(-c2ccccc2)n[nH]c1=S)c1ccccc1 (stereo not drawn): < 1000 nM

Items follow; give Ki for each.
1. O=C(O)c1ccccc1CCn1c(C23CC4CC(CC(C4)C2)C3)n[nH]c1=S
2. COc1ccc(O)c(-c2n[nH]c(=S)n2CCCC(=O)O)c1
3. O=C(O)CCCn1c(-c2cccc(-c3ccccc3)c2)n[nH]c1=S
4. Cn1cccc1-c1n[nH]c(=S)n1CCCC(=O)O

Result:
1. 1000 to 10000 nM
2. 1000 to 10000 nM
3. < 1000 nM
4. > 100000 nM

----------
Kindly state melting point for each of the entries shown.

COc1ccc(O)c(-c2n[nH]c(=S)n2CCCCC(=O)O)c1: 155 to 156 °C
O=C(O)CC(Cn1c(-c2ccccc2)n[nH]c1=S)c1ccc(Cl)cc1 (stereo not drawn): 153 to 154 °C
Cc1nnsc1-c1n[nH]c(=S)n1CCc1ccccc1C(=O)O: 195 to 196 °C

Items follow; give melting point for each.
1. O=C(O)C1CCC(Cn2c(-c3ccccc3)n[nH]c2=S)CC1 (stereo not drawn)
2. O=C(O)CCCCn1c(-c2ccccc2)n[nH]c1=S

Result:
["207 to 208 °C", "176 to 177 °C"]

Items follow; give melting point for each.
1. O=C(O)c1ccccc1CCn1c(-c2ccc3ccccc3c2)n[nH]c1=S
2. [N-]=[N+]=NCCn1c(-c2ccccc2)n[nH]c1=S
3. O=C(O)CCCCn1c(-c2ccc3ccccc3c2)n[nH]c1=S
4. O=C(O)c1ccccc1CCn1c(-c2cccs2)n[nH]c1=S

Result:
["240 to 241 °C", "108 to 109 °C", "170 to 171 °C", "195 to 196 °C"]

----------
Kindly state pKi for each of the entries shown.
molecular target: IMP-1 (Serratia marcescens, UniProt P52699); experiment: Enzymatic assay for determination of inhibition constants, reporter substrate method, purified IMP-1; type: biochemical; settings: isolated MBL, competitive inhibition model;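 also: purified IMP-1 (1-70 nM) hydrolysing a reporter substrate, initial rates followed as absorbance change at 260, 300 or 482 nm in 50 mM HEPES pH 7.5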
Sequence (P52699 19-246, looked up, species assumed): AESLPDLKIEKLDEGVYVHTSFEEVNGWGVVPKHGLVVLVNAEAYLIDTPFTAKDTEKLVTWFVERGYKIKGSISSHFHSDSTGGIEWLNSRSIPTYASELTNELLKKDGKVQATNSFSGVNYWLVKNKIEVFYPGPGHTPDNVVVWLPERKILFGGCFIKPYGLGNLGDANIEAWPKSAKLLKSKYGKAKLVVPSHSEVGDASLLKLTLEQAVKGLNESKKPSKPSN
pKi: −log10 of the molar value.

Known pKi results, listed for orientation:
S=c1[nH]nc(-c2ccccc2)n1CCc1ccccc1: 5.00 to 6.00
CN1CCN(CCOc2cccc(-c3n[nH]c(=S)n3CCc3ccccc3C(=O)O)c2)CC1: < 4.00
O=C(O)C1CCCC(n2c(-c3ccccc3)n[nH]c2=S)C1 (stereo not drawn): < 4.00
O=C(O)C1CCC(Cn2c(-c3ccccc3)n[nH]c2=S)CC1 (stereo not drawn): < 4.00
O=C(O)C(CSCCn1c(-c2ccccc2)n[nH]c1=S)c1ccccc1 (stereo not drawn): 4.00 to 5.00

Items follow; give pKi for each.
1. O=C(O)C(CCCn1c(-c2ccccc2)n[nH]c1=S)N(Cc1ccccc1)Cc1ccccc1 (stereo not drawn)
2. O=C(O)c1ccccc1CCn1c(C23CC4CC(CC(C4)C2)C3)n[nH]c1=S
3. O=C(O)c1ccccc1CCn1c(-c2ccc3ccccc3c2)n[nH]c1=S
4. O=C(O)c1ccccc1CNn1c(-c2ccc3ccccc3c2)n[nH]c1=S

Result:
1. < 4.00
2. < 4.00
3. 4.00 to 5.00
4. < 4.00

----------
biological target: UniProtKB Q5U7L7; test: Enzymatic assay for determination of inhibition constants, reporter substrate method, purified VIM-2; format: biochemical; details: at 100 μM (maximal tested concentration)
parameter: % inhibition VIM-2 (% at 100 μM)
One number for each entry, in % at 100 μM.

Known % inhibition VIM-2 results, listed for orientation:
O=C(O)C(CCCn1c(-c2ccccc2)n[nH]c1=S)N(Cc1ccccc1)Cc1ccccc1 (stereo not shown) [Compound 68]: 65
O=C(O)c1ccccc1CCn1c(-c2ccc3ncccc3c2)n[nH]c1=S [Compound 56]: 85
O=C(O)CSCCn1c(-c2ccccc2)n[nH]c1=S [Compound 65]: 90

Please find the next molecule below.
Task: Look up % inhibition VIM-2: O=C(O)C(SCCn1c(-c2ccccc2)n[nH]c1=S)c1ccccc1 (stereo not shown) [Compound 60]
Result: 96

----------
Kindly state pKi for each of the entries shown.
target: IMP-1 (Serratia marcescens); test: Enzymatic assay for determination of inhibition constants, reporter substrate method, purified IMP-1; details: isolated MBL, competitive inhibition model
pKi: −log10 of the molar value.

Known pKi results, listed for orientation:
O=C(O)CCCn1c(-c2cccc(-c3ccccc3)c2)n[nH]c1=S [Compound 38]: < 4.00
O=C(O)CC(Cn1c(-c2ccccc2)n[nH]c1=S)c1ccc(Cl)cc1 (centres unmarked) [Compound 21]: < 4.00

Items follow; give pKi for each.
1. O=C(O)c1cc(O)ccc1CCn1c(-c2ccccc2)n[nH]c1=S [Compound 53]
2. Cc1ccccc1-c1n[nH]c(=S)n1CCc1ccccc1C(=O)O [Compound 14]
3. Fc1ccc(CSCCn2c(-c3ccccc3)n[nH]c2=S)c(F)c1 [Compound 73]

Result:
1. < 4.00
2. < 4.00
3. 5.00 to 6.00
